Quick reference: ∆Tm (K) of the listed items.
Target: LRRK2^KW (Homo sapiens, UniProt Q5S007)
Construct: LRRK2 R1847 to E2527; His6-Z-tag (TEV cleavable) (N, cleaved yes); host or cells: Sf9 insect cells (baculovirus)
Sequence (Q5S007 1847-2527): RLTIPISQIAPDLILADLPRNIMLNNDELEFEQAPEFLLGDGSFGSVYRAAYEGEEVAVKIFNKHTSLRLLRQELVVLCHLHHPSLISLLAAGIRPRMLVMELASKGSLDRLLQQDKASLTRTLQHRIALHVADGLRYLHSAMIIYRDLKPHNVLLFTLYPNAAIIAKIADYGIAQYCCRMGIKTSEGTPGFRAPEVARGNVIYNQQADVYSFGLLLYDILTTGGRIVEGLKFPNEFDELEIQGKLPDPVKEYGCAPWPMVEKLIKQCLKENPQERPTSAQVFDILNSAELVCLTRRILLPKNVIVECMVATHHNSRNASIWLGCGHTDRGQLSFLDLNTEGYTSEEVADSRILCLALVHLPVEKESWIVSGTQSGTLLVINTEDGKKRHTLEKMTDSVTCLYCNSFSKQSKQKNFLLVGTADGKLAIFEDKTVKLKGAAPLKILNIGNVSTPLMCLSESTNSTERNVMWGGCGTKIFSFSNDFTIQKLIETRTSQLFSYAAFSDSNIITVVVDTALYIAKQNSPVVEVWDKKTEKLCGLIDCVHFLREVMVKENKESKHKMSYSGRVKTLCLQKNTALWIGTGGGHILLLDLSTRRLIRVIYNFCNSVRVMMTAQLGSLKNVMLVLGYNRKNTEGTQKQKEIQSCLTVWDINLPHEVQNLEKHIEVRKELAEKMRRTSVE
Assay: DSF thermal stabilization of LRRK2^KW
Type: binding
Settings: DSF, LRRK2^KW, 10 μM inhibitor

- compound: "Cn1cc(-c2c[nH]c3ncnc(N4CCOCC4)c23)cc1C#N [PF-360, reference compound]"
  ∆Tm (K): "14.0 ± 0.7 K"
- compound: "CN1CCc2cc(NC(=O)C3(C(=O)Nc4cccc(-c5c[nH]c6ncnc(N7CCOCC7)c56)c4)CC3)ccc2C1"
  ∆Tm (K): "4.3 K"
- compound: "O=C(Nc1cccc(-c2c[nH]c3ncnc(N4CCOCC4)c23)c1)C1(C(=O)Nc2cccc3c2CCC3)CC1"
  ∆Tm (K): "9.2 K"
- compound: "O=C(Nc1cccc(-c2c[nH]c3ncnc(N4CCOCC4)c23)c1)C1(C(=O)Nc2cc(Br)c(F)cc2F)CC1"
  ∆Tm (K): "9.0 K"
- compound: "Cc1ccc(C(=O)Nc2ccc(CN3CCN(C)CC3)c(C(F)(F)F)c2)cc1C#Cc1c[nH]c2ncnc(N3CCOCC3)c12"
  ∆Tm (K): "9.5 K"
- compound: "O=C(Nc1cccc(-c2c[nH]c3ncnc(N4CCOCC4)c23)c1)C1(C(=O)Nc2ccc(F)c(Br)c2)CC1"
  ∆Tm (K): "14.0 K"
- compound: "COc1cc(S(C)(=O)=O)ccc1Nc1nc(N(C)C)c2c(-c3cccc(NC(=O)Nc4cc(C(C)(C)C)nn4-c4ccc(C)cc4)c3)c[nH]c2n1"
  ∆Tm (K): "1.0 K"
- compound: "Cc1cc(NC(=O)C2(C(=O)Nc3cccc(-c4c[nH]c5ncnc(N6CCOCC6)c45)c3)CC2)ccc1F"
  ∆Tm (K): "13.3 K"
- compound: "O=C(Nc1cccc(-c2c[nH]c3ncnc(N4CCOCC4)c23)c1)C1(C(=O)Nc2ccc(F)c(Cl)c2)CC1"
  ∆Tm (K): "12.3 K"
- compound: "O=C(Nc1cccc(-c2c[nH]c3ncnc(N4CCOCC4)c23)c1)C1(C(=O)Nc2ccc(F)c(Br)c2F)CC1"
  ∆Tm (K): "10.7 K"
- compound: "Cc1ccc(-n2nc(C(C)(C)C)cc2NC(=O)Nc2cccc(-c3c[nH]c4ncnc(N5CCOCC5)c34)c2)cc1"
  ∆Tm (K): "21.0 K"
- compound: "O=C(Nc1ccccc1)C1(C(=O)Nc2cccc(-c3c[nH]c4ncnc(N5CCOCC5)c34)c2)CC1"
  ∆Tm (K): "9.3 K"
- compound: "CCc1ccc(NC(=O)C2(C(=O)Nc3cccc(-c4c[nH]c5ncnc(N6CCOCC6)c45)c3)CC2)cc1"
  ∆Tm (K): "9.1 K"
- compound: "O=C(Nc1cccc(-c2c[nH]c3ncnc(N4CCOCC4)c23)c1)c1cccn(-c2ccc(F)cc2)c1=O"
  ∆Tm (K): "13.0 K"
- compound: "O=C(Nc1cccc(-c2c[nH]c3ncnc(N4CCOCC4)c23)c1)C1(C(=O)Nc2ccc(F)c(F)c2)CC1"
  ∆Tm (K): "10.3 K"
- compound: "Cn1cc(NC(=O)C2(C(=O)Nc3cccc(-c4c[nH]c5ncnc(N6CCOCC6)c45)c3)CC2)cn1"
  ∆Tm (K): "4.0 K"
- compound: "O=C(Nc1ccc(F)cc1)C1(C(=O)Nc2cccc(-c3ccc4n[nH]cc4c3)c2)CC1"
  ∆Tm (K): "3.0 K"
- compound: "O=C(Nc1ccc(Cl)cc1)C1(C(=O)Nc2cccc(-c3c[nH]c4ncnc(N5CCOCC5)c34)c2)CC1"
  ∆Tm (K): "9.5 K"
- compound: "O=C(Nc1cccc(-c2c[nH]c3ncnc(N4CCOCC4)c23)c1)C1(C(=O)Nc2ccc(F)cc2F)CC1"
  ∆Tm (K): "9.2 K"
- compound: "COc1cc(NC(=O)C2(C(=O)Nc3cccc(-c4c[nH]c5ncnc(N6CCOCC6)c45)c3)CC2)ccc1F"
  ∆Tm (K): "9.3 K"
- compound: "Cc1ccc(C(=O)Nc2ccc(CN3CCN(C)CC3)c(C(F)(F)F)c2)cc1C#Cc1cnc2cccnn12 [Ponatinib, reference compound]"
  ∆Tm (K): "13.0 K"
- compound: "COc1ccc(NC(=O)C2(C(=O)Nc3cccc(-c4c[nH]c5ncnc(N6CCOCC6)c45)c3)CC2)cc1"
  ∆Tm (K): "4.3 K"
- compound: "O=C(c1cccc(NC(=O)C2(C(=O)Nc3ccc(F)cc3)CC2)c1)c1c[nH]c2ncnc(N3CCOCC3)c12"
  ∆Tm (K): "7.0 K"
- compound: "Cc1ccc(NC(=O)C2(C(=O)Nc3cccc(-c4c[nH]c5ncnc(N6CCOCC6)c45)c3)CC2)cc1"
  ∆Tm (K): "9.1 K"
- compound: "Cc1ccc(C(=O)Nc2ccc(CN3CCN(C)CC3)c(C(F)(F)F)c2)cc1C#Cc1cnc2[nH]ncc2c1 [GZD-824, reference compound]"
  ∆Tm (K): "21.2 ± 2.5 K"
- compound: "COc1cc(C(=O)N2CCOCC2)c(F)cc1Nc1nc(N(C)C)c2c(Cl)c[nH]c2n1"
  ∆Tm (K): "16.0 K"
- compound: "Cc1ccc(-c2c[nH]c3ncnc(N4CCOCC4)c23)cc1NC(=O)C1(C(=O)Nc2ccc(F)cc2)CC1"
  ∆Tm (K): "7.8 K"
- compound: "Cc1cc(NC(=O)C2(C(=O)Nc3ccc(F)cc3)CC2)cc(-c2c[nH]c3ncnc(N4CCOCC4)c23)c1"
  ∆Tm (K): "10.0 K"
